Assay info: Oral bioavailability in Alzheimer's disease patient at 2 mg/ml
Format: ADME, organism-based
Condition set: human, in vivo
Observed property: bioavailability (%)
Numbers only here, please. The scale is %.

Tell me the measured bioavailability of CC12CC3CC(C)(C1)CC(N)(C3)C2 [MEMANTINE] , please.
100

====

Experimental target: cGMP-inhibited 3',5'-cyclic phosphodiesterase 3A (Homo sapiens, UniProt Q14432)
Sequence (Q14432 whole entry): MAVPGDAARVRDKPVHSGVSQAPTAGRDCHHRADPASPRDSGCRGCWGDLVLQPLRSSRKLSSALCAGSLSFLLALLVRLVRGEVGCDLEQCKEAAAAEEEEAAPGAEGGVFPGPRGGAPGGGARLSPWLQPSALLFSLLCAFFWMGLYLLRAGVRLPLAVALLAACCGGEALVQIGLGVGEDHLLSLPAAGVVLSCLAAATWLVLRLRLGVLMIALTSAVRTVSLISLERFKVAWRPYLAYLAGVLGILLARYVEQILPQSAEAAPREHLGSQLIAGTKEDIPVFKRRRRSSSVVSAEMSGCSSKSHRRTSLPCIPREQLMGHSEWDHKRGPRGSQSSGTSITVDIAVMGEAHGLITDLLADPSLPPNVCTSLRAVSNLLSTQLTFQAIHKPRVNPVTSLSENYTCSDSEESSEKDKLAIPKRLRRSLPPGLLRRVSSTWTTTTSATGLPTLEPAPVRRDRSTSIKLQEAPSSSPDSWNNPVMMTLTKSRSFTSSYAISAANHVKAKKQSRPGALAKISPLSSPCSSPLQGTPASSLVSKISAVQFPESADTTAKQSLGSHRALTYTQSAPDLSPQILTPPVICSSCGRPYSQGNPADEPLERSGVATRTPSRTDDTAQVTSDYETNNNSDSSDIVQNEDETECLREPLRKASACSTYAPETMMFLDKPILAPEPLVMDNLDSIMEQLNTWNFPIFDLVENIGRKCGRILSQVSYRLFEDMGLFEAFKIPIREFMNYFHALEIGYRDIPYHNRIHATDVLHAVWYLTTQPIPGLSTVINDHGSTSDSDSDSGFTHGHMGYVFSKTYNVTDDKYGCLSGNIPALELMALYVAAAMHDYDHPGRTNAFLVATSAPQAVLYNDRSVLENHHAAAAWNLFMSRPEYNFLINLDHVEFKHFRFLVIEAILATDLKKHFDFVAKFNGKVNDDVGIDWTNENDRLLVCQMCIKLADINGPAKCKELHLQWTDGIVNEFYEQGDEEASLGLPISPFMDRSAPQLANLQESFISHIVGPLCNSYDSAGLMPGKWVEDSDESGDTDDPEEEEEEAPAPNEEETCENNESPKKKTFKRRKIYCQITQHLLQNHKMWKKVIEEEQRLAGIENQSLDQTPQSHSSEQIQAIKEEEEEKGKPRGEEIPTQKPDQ
pIC50: −log10 of the molar value.
Observed property: pIC50

Tell me the measured pIC50 of `O=C1[C@H]2Cc3c([nH]c4ccccc34)[C@@H](c3ccc4c(c3)OCO4)N2C(=O)CN1CCC1CCN(Cc2ccccc2)CC1` , please.
< 4.00

====

Experimental target: Glutamate [NMDA] receptor
Assay info: Displacement of [3H]-MK-801 from NMDA receptor (unknown origin) by scintillation counting method
Type: protein-complex assay, Homo sapiens
Observed property: IC50 (µM)
Numbers only here, please. The scale is µM.

Tell me the measured IC50 of `CCN1CCc2c(c3ccccc3n2CCC(=O)N2c3ccccc3Sc3ccccc32)C1` , please.
14.6

====

Experimental target: Cone cGMP-specific 3',5'-cyclic phosphodiesterase subunit alpha' (Homo sapiens, UniProt P51160)
Sequence (P51160 whole entry): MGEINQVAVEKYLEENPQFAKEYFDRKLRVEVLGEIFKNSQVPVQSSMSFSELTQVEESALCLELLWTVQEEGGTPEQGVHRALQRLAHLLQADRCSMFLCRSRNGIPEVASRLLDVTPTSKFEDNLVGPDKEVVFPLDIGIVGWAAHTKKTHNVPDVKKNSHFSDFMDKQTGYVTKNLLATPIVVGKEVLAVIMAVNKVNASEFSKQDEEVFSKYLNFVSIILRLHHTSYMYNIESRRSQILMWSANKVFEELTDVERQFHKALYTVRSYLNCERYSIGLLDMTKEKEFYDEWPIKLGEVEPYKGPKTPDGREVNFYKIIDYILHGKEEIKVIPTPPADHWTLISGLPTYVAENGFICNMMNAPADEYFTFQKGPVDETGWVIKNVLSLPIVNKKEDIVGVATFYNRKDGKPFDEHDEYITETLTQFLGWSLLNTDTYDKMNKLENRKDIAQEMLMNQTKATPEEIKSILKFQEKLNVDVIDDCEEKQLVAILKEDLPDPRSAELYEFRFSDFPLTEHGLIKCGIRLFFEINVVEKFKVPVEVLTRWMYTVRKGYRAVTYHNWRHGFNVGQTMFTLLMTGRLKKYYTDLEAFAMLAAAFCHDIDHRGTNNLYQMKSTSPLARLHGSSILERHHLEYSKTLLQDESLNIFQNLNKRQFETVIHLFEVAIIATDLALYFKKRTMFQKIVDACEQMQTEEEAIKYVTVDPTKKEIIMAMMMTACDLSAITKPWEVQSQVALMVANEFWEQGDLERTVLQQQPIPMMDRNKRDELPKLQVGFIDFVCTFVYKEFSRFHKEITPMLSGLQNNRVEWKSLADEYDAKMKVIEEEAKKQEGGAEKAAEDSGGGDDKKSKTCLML
Assay info: Inhibition of PDE6C (unknown origin) by immobilized metal ion affinity-based fluorescence polarization
Observed property: IC50

Tell me the measured IC50 of `O=C1[C@H]2Cc3c([nH]c4ccccc34)[C@@H](c3ccc4c(c3)OCO4)N2C(=O)CN1CCC1CCN(Cc2ccccc2)CC1` , please.
> 100 µM

====

Experimental target: Butyrylcholinesterase (Rattus norvegicus)
Sequence (Q9JKC1 whole entry): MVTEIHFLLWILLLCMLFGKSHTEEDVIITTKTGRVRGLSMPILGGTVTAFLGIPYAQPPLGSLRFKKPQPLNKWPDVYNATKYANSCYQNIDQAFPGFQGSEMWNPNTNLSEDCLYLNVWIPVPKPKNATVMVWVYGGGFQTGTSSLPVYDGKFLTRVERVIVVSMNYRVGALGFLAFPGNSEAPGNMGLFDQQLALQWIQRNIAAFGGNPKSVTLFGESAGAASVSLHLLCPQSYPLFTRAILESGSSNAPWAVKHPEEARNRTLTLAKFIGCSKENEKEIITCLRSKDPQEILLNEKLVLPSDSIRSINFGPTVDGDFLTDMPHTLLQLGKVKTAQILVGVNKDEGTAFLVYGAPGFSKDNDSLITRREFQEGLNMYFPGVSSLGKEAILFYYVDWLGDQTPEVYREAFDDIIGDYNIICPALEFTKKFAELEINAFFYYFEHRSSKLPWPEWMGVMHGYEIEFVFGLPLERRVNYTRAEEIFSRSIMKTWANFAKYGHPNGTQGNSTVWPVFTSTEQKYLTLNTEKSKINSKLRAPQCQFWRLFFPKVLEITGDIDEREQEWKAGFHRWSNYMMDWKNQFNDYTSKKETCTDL
Assay info: Inhibition of BuChE from rat serum by Ellman's method
Observed property: pIC50
Convention used: pIC50 is expressed as -log10 of the molar concentration.

Tell me the measured pIC50 of `O=C1[C@H]2Cc3c([nH]c4ccccc34)[C@@H](c3ccc4c(c3)OCO4)N2C(=O)CN1CCC1CCN(Cc2ccccc2)CC1` , please.
5.41

====

Experimental target: Amine oxidase [flavin-containing] A (Homo sapiens)
Assay info: Irreversible inhibition of MAOA (unknown origin)
// IC50 lookup, one value per entry
Numbers only here, please. The scale is µM.

Compound smiles	IC50 (µM)
COc1ccc2[nH]c3nc4c(c(N)c3c2c1)CCCC4	0.49

Let's switch to this compound now.
Enter reported IC50 observed with Amine oxidase [flavin-containing] A (Homo sapiens) for `C#CCN(C)Cc1ccc(O)c2ncccc12`
6.2

====

Experimental target: Amine oxidase [flavin-containing] A (Homo sapiens)
Sequence (P21397 whole entry): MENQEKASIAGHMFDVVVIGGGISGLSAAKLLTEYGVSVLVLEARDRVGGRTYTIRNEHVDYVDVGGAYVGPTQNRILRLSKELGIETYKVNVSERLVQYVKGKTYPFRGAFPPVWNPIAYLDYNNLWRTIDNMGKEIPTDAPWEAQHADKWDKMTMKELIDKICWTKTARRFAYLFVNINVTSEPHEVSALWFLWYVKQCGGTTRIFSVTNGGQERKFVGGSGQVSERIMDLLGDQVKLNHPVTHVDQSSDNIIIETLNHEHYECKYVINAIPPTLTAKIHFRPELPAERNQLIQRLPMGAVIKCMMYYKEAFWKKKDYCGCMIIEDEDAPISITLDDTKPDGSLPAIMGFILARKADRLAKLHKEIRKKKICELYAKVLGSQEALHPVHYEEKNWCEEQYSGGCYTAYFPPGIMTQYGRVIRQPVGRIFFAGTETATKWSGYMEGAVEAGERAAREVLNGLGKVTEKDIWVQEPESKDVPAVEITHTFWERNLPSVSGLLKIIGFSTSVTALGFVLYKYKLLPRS
Assay info: Mixed type inhibition of MAOA (unknown origin)
Observed property: IC50 (µM)
Numbers only here, please. The scale is µM.

Enter reported IC50 observed with Amine oxidase [flavin-containing] A (Homo sapiens) for `C#CCN(C)Cc1ccc(O)c2ncccc12`
57

Numbers sourced from ChEMBL document CHEMBL4350982.
